- Target Or Test System: Concanavalin-A (Canavalia ensiformis) (UniProt P02866)
- Sequence (P02866 whole entry, looked up): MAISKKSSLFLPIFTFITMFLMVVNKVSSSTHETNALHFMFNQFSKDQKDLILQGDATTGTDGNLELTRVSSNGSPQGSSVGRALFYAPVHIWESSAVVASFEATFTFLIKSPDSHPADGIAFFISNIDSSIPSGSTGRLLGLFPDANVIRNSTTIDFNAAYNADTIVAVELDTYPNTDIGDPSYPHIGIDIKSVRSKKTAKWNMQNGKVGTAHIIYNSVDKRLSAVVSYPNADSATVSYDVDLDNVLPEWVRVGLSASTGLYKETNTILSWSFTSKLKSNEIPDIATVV
- Method Description: ConA small-molecule binders, primary screen, artefact control for SMM control protein annotation, biochemical, small-molecule microarray, Alexa647 label, 635 nm (AID 1127)
- Condition Notes: ConA-A647 binding fluorescence, higher = more signal
Tick Met if composite z-score is -0.1 or greater. Tick Not met if composite z-score is less than -0.1.

Worked examples follow.
CCc1cc2c(nc1CC)CCN(CCC(C)=NOC[C@H]1O[C@H](c3ccccc3)C=C[C@@H]1Oc1ccc(OC)cc1)C2 | Met
C[C@@H](c1ccccc1)N1C(=O)[C@H]2[C@H]3[C@H](O)[C@H](O)CC(=NOCc4ccccc4)[C@H]3CC[C@H]2C1=O | Met
CCOC(=O)[C@H](Cc1ccccc1)NC(=O)CCC1CC(OC(=O)NCCc2ccc(F)cc2)CC2(CCCC(COC(=O)NCCc3ccccc3OC)O2)O1 (some centres undefined) | Met
C=CC[C@@H]1C=C[C@H](ON=C(C)CCN2CCc3nc(-c4ccccc4)c(-c4ccccc4)cc3C2)[C@@H](CO)O1 | Met
CC(C)(C)N1C(=O)[C@H]2[C@H]3[C@H](O)[C@H](O)CC(=NO[C@@H]4O[C@H](CO)[C@@H](O)[C@H](O)[C@H]4O)[C@H]3CC[C@H]2C1=O | Not met

Assess whether reported composite z-score for `C#CCCCON=C1C[C@@H](O)[C@@H](O)[C@@H]2[C@@H]3C(=O)N(Cc4ccccc4)C(=O)[C@@H]3CC[C@@H]12` sits at -0.1 or higher.
Not met

Hello, I need to know if `COc1ccc(O[C@H]2C=C[C@@H](c3ccccc3)O[C@@H]2COC(=O)CCC(C)=NO[C@@H]2O[C@H](COC(C)=O)[C@@H](OC(C)=O)[C@H](OC(C)=O)[C@H]2OC(C)=O)cc1` has measured composite z-score not below -0.1. Thanks!
Met

Exam item: decide whether the reported composite z-score for `CCN1C(=O)[C@@H]2[C@H]3C(=CC[C@@H]2C1=O)C1(OCCCO1)[C@H]1O[C@H]1[C@H]3O` is at least -0.1.
Met

###

- Method Description: S. cerevisiae RM11-1a growth modifiers, primary screen, strain RM11-1a, OD600, basal, 24 h (AID 1177);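 also: cultures grown under basal conditions with no added stressor; test concentration not given here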
- Condition Notes: OD600, 24 h, higher = more signal, called active from +8 up or from −8 down
Rule: YES for z-score not less than 0.2, NO for anything less.

Example entries and their recorded answers appear below.
C[C@@H](c1ccccc1)N1C(=O)[C@H]2[C@H]3[C@H](O)[C@H](O)CC(=NO[C@@H]4O[C@H](CO)[C@@H](O)[C@H](O)[C@H]4O)[C@@H]3CC[C@H]2C1=O | NO
CCOC(=O)[C@H](Cc1ccccc1)NC(=O)CCC1CC(OC(=O)NCCc2ccc(F)cc2)CC2(CCCC(COC(=O)NCCCN3CCCC3=O)O2)O1 (some centres not stated) | NO
COC(=O)CC=C[C@H](C)[C@@H](OCc1cccc(Br)c1)[C@@H](C)[C@H](OC)C1CCCCC1 | NO
CCN1C(=O)[C@H]2[C@H]3[C@H](O)[C@H](O)CC(=NO[C@@H](C)c4cn([C@H](CO)Cc5ccccc5)nn4)[C@@H]3CC[C@H]2C1=O | YES
CC(CCN1CCc2nc(-c3ccccc3)c(-c3ccccc3)cc2C1)=NOC[C@@H](O)COCc1ccco1 | YES

Answer whether z-score of `COc1ccc(O[C@H]2C=C[C@@H](c3ccccc3)O[C@@H]2CON=C(C)C)cc1` is greater than or equal to 0.2.
YES

Quick check, z-score >= 0.2? `COC(=O)CC=C[C@@H](C)[C@@H](C=NOCC[C@@H]1C=C[C@H](OC(C)=O)[C@@H](COC(C)=O)O1)OC`
YES
